These measurements were taken from ChEMBL document CHEMBL1914333.

Target under test: 80S Ribosome (Homo sapiens) (UniProt P08865+P42677+P62753+P15880+P23396+P61247+P62701+P22090+P46782+P62081+P62241+P46781+P46783+P62280+P25398+P62277+P62263+P62841+P62244+P62249+P08708+P62269+P39019+P60866+P63220+P62266+P62847+P62851+P62854+P62979+P62857+P62273+P62861+P39023+P36578+P46777+Q02878+P18124+P62424+P62917+P32969+P27635+P62906+P62913+P30050+P26373+P40429+P50914+P61313+P18621+Q07020+Q02543+P84098+P46778+P35268+P62829+P62750+P83731+P61254+P61353+P46776+P46779+P47914+P62888+P62899+P62910+P49207+P42766+P18077+Q9Y3U8+P83881+P61927+P61513+P63173+P62891+P62945+P05388+P05386)
Measurement notes: Induction of ribosome to readthrough in human A-T lymphoblastoid cells assessed as ATM ser1981 autophosphorylation at 30 uM after 4 days by PTT-ELISA assay
Type: subcellular
Activity calls are given as the source filed them. The calls are words filed in the database; no cut-off is given here.
Observation type: Flu intensity

Some solved entries appear below for comparison.
Molecule	Flu intensity
N=C1NC(=O)/C(=C/c2ccc(-c3ccccc3Cl)o2)S1	inactive
O=C1NC(=S)S/C1=C\c1ccc(-c2ccccc2C(F)(F)F)o1	inactive
Cc1cn(Cc2ccc(-c3ccccc3F)o2)c(=O)[nH]c1=O	6.16
O=C1NC(=S)S/C1=C\c1ccc(-c2cccc(Cl)c2)o1	2.86
N=C1NC(=O)/C(=C/c2ccco2)S1	inactive
N=C1NC(=O)/C(=C/c2ccc(-c3ccccc3)s2)S1	inactive

Given the entry `O=c1ccn(Cc2ccc(-c3ccccc3F)o2)c(=O)[nH]1` , report its measured Flu intensity.
5.43

###

Target under test: 80S Ribosome (Homo sapiens) (UniProt P08865+P42677+P62753+P15880+P23396+P61247+P62701+P22090+P46782+P62081+P62241+P46781+P46783+P62280+P25398+P62277+P62263+P62841+P62244+P62249+P08708+P62269+P39019+P60866+P63220+P62266+P62847+P62851+P62854+P62979+P62857+P62273+P62861+P39023+P36578+P46777+Q02878+P18124+P62424+P62917+P32969+P27635+P62906+P62913+P30050+P26373+P40429+P50914+P61313+P18621+Q07020+Q02543+P84098+P46778+P35268+P62829+P62750+P83731+P61254+P61353+P46776+P46779+P47914+P62888+P62899+P62910+P49207+P42766+P18077+Q9Y3U8+P83881+P61927+P61513+P63173+P62891+P62945+P05388+P05386)
Measurement notes: Induction of ribosome to readthrough in human A-T lymphoblastoid cells assessed as ATM ser1981 autophosphorylation at 30 uM after 4 days by PTT-ELISA assay
Format: subcellular
Active and inactive are the calls of the source. The rule behind the calls is not given here.
Observation type: Flu intensity

Molecule	Value reported
N=C1NC(=O)/C(=C/c2c[nH]c(=O)[nH]c2=O)S1	5.32
Cc1cn(Cc2ccc(-c3ccccc3)o2)c(=O)[nH]c1=O	3.8
COc1ccccc1-c1ccc(/C=C2\SC(=S)NC2=O)o1	inactive
O=c1ccn(Cc2ccc(-c3ccccc3[N+](=O)[O-])o2)c(=O)[nH]1	4.94
N=C1NC(=O)/C(=C/c2cc3ccccc3[nH]2)S1	inactive

What does the data say about its Flu intensity? Entry: `COc1cccc(-c2ccc(/C=C3\SC(=N)NC3=O)o2)c1`
1.9

Which Flu intensity reading was recorded for the compound `Nc1ccn(Cc2ccc(-c3ccccc3[N+](=O)[O-])o2)c(=O)n1` ?
inactive

What value of Flu intensity has been reported for the following compound? `Nc1nc(=O)n(Cc2ccc(-c3ccccc3[N+](=O)[O-])o2)cc1F`
inactive

What value of measured Flu intensity is listed for `O=c1[nH]c(=O)n(Cc2ccc(-c3ccccc3[N+](=O)[O-])o2)cc1F` ?
2.08

Given the entry `O=c1ccn(Cc2ccc(-c3cccc(Cl)c3)o2)c(=O)[nH]1` , report its measured Flu intensity.
5.07

Using the record for `O=C1NC(=S)S/C1=C\c1ccc(-c2ccccc2[N+](=O)[O-])o1` , report its Flu intensity.
inactive

Bench note: what Flu intensity did `N=C1NC(=O)/C(=C/c2ccc(-c3ccccc3[N+](=O)[O-])o2)S1` show?
3.27

Please look up its Flu intensity: `COc1cccc(-c2ccc(/C=C3\SC(=S)NC3=O)o2)c1`
2.66

Record request: Flu intensity value, item `N=C1NC(=O)/C(=C/c2ccc(-c3ccccc3)o2)S1`
inactive

Which Flu intensity reading was recorded for the compound `Cc1cn(Cc2ccc(-c3ccccc3[N+](=O)[O-])o2)c(=O)[nH]c1=O` ?
inactive

// lookup Flu intensity for `O=C1NC(=S)S/C1=C\c1ccc(-c2ccccn2)o1`
inactive

Please report the recorded Flu intensity for `O=C1NC(=S)S/C1=C\c1cc2ccccc2[nH]1` .
inactive
